Assay: in vitro
Type: cell-based, human
Conditions: human, CC50
parameter: CC50 at 20 h (µg/mL)

[[record]]
compound = "COC(=O)/C(CCC=C(C)C)=C1\\[C@@H](OC(C)=O)C[C@@]2(C)[C@H]1C[C@@H](O)[C@H]1[C@@]3(C)CC[C@H](NCc4ccccc4)[C@@H](C)[C@@H]3CC[C@@]12C"
relational_operator = "="
observed_measurement = 17.8

[[record]]
compound = "COC(=O)/C(CCC=C(C)C)=C1\\[C@@H](OC(C)=O)C[C@@]2(C)[C@@H]1C[C@@H](O)[C@@H]1[C@@]3(C)CC[C@H](NCCCNCCCCN)[C@@H](C)C3CC[C@@]12C (some centres unmarked)"
relational_operator = "="
observed_measurement = 15.4

[[record]]
compound = "CC(=O)O[C@H]1C[C@@]2(C)[C@@H](CC(=O)[C@H]3[C@@]4(C)CCC(=O)[C@@H](C)[C@@H]4CC[C@@]32C)/C1=C(\\CCC=C(C)C)C(=O)O"
relational_operator = ">"
observed_measurement = 32

[[record]]
compound = "COC(=O)/C(CCC=C(C)C)=C1\\[C@@H](OC(C)=O)C[C@@]2(C)[C@@H]1C[C@@H](O)[C@@H]1[C@@]3(C)CC[C@H](NC(=O)c4cnccn4)[C@@H](C)C3CC[C@@]12C (some centres unmarked)"
relational_operator = "="
observed_measurement = 24

[[record]]
compound = "CC(=O)O[C@H]1C[C@@]2(C)[C@@H](C[C@@H](O)[C@H]3[C@@]4(C)CC[C@@H](O)[C@@H](C)[C@@H]4CC[C@@]32C)/C1=C(\\CCC=C(C)C)C(=O)O"
relational_operator = ">"
observed_measurement = 32


* * *

Tested on: human red blood cells
Assay: Hemolysis assay
Assay type: cell-based
Settings: human, 1 h
parameter: HC50

[[record]]
compound = "COC(=O)/C(CCC=C(C)C)=C1\\[C@@H](OC(C)=O)C[C@@]2(C)[C@H]1C[C@@H](O)[C@H]1[C@@]3(C)CC[C@H](NCc4ccccc4)[C@@H](C)[C@@H]3CC[C@@]12C [Compound 18]"
parameter = "HC50"
observed_measurement = ">32 >32 µg/mL"

[[record]]
compound = "CC(=O)O[C@H]1C[C@@]2(C)[C@@H](CC(=O)[C@H]3[C@@]4(C)CCC(=O)[C@@H](C)[C@@H]4CC[C@@]32C)/C1=C(\\CCC=C(C)C)C(=O)O [Compound 1]"
parameter = "HC50"
observed_measurement = ">32 >32 µg/mL"

[[record]]
compound = "CCCCN[C@H]1CC[C@@]2(C)[C@@H](CC[C@@]3(C)[C@H]2[C@H](O)C[C@H]2/C(=C(\\CCC=C(C)C)C(=O)OC)[C@@H](OC(C)=O)C[C@@]23C)[C@@H]1C [Compound 14]"
parameter = "HC50"
observed_measurement = ">32 >32 µg/mL"


* * *

Test system: Candida albicans (ATCC 90028)
Assay: Antifungal growth inhibition (MIC, CO-ADD)
Assay type: cell-based
Conditions: Candida albicans, ATCC90028; C. albicans; inhibition ≥80%; two replicates per cell; read-out: MIC
Reported MIC values for the following compounds.
parameter: MIC (µg/mL)

[[record]]
compound = "CC(=O)O[C@H]1C[C@@]2(C)[C@@H](C[C@@H](O)[C@H]3[C@@]4(C)CC[C@H](NCCCNCCCCNCCCN)[C@@H](C)[C@@H]4CC[C@@]32C)/C1=C(\\CCC=C(C)C)C(=O)O [Compound 21]"
relational_operator = "="
observed_measurement = 32

[[record]]
compound = "CC(=O)O[C@H]1C[C@@]2(C)[C@@H](C[C@@H](O)[C@H]3[C@@]4(C)CC[C@H](NCCCNCCCCN)[C@@H](C)[C@@H]4CC[C@@]32C)/C1=C(\\CCC=C(C)C)C(=O)O [Compound 19]"
relational_operator = ">"
observed_measurement = 32

[[record]]
compound = "COC(=O)/C(CCC=C(C)C)=C1\\[C@@H](OC(C)=O)C[C@@]2(C)[C@@H]1C[C@@H](O)[C@@H]1[C@@]3(C)CC[C@H](NCCCNCCCCN)[C@@H](C)C3CC[C@@]12C (some centres unmarked) [Compound 20]"
relational_operator = "="
observed_measurement = 32

[[record]]
compound = "COC(=O)/C(CCC=C(C)C)=C1\\[C@@H](OC(C)=O)C[C@@]2(C)[C@@H]1C[C@@H](O)[C@@H]1[C@@]3(C)CC[C@H](NCCCNCCCCNCCCN)[C@@H](C)C3CC[C@@]12C (some centres unmarked) [Compound 22]"
relational_operator = "="
observed_measurement = 32

[[record]]
compound = "CC(=O)O[C@H]1C[C@@]2(C)[C@@H](C[C@@H](O)[C@H]3[C@@]4(C)CC[C@@H](O)[C@@H](C)[C@@H]4CC[C@@]32C)/C1=C(\\CCC=C(C)C)C(=O)O [Fusidic acid]"
relational_operator = ">"
observed_measurement = 32


* * *

Tested on: human embryonic kidney cell line HEK293 (ATCC CRL-1573)
Assay: in vitro
Format: cell-based
Settings: human, 20 h
parameter: CC50 (µg/mL)

[[record]]
smiles_representation = "COC(=O)/C(CCC=C(C)C)=C1\\[C@@H](OC(C)=O)C[C@@]2(C)[C@H]1C[C@@H](O)[C@H]1[C@@]3(C)CC[C@H](NCc4ccccc4)[C@@H](C)[C@@H]3CC[C@@]12C"
parameter = "CC50"
observed_measurement = 17.5

[[record]]
smiles_representation = "CCCCN[C@H]1CC[C@@]2(C)[C@@H](CC[C@@]3(C)[C@H]2[C@H](O)C[C@H]2/C(=C(\\CCC=C(C)C)C(=O)OC)[C@@H](OC(C)=O)C[C@@]23C)[C@@H]1C"
parameter = "CC50"
observed_measurement = 23.8


* * *

Reported MIC values for the following molecules.
System: Pseudomonas aeruginosa (ATCC 27853)
Test: Antibacterial whole-cell growth inhibition (MIC, CO-ADD)
Format: cell-based
Conditions: P. aeruginosa; two replicates per cell
parameter: MIC (µg/mL)

[[record]]
molecule = "CC(=O)O[C@H]1C[C@@]2(C)[C@@H](C[C@@H](O)[C@H]3[C@@]4(C)CC[C@H](NCCCNCCCCNCCCN)[C@@H](C)[C@@H]4CC[C@@]32C)/C1=C(\\CCC=C(C)C)C(=O)O"
parameter = "MIC"
observed_measurement = 32

[[record]]
molecule = "COC(=O)/C(CCC=C(C)C)=C1\\[C@@H](OC(C)=O)C[C@@]2(C)[C@@H]1C[C@@H](O)[C@@H]1[C@@]3(C)CC[C@H](NCCCNCCCCNCCCN)[C@@H](C)C3CC[C@@]12C (some centres unmarked)"
parameter = "MIC"
observed_measurement = 32


* * *

Assay: Hemolysis assay
Type: cell-based, human
Conditions: human, Dmax (maximal percentage of hemolysis)
Classification by hemolysis at 1 h | ranges: bottom range = under 4%, center range = from 4% up to 10%, top range = 10% and over

[[record]]
molecule = "CC(=O)O[C@H]1C[C@@]2(C)[C@@H](CC(=O)[C@H]3[C@@]4(C)CC[C@H](NCc5ccccc5)[C@@H](C)[C@@H]4CC[C@@]32C)/C1=C(\\CCC=C(C)C)C(=O)O"
discrete_label = "bottom range"

[[record]]
molecule = "COC(=O)/C(CCC=C(C)C)=C1\\[C@@H](OC(C)=O)C[C@@]2(C)[C@@H]1C[C@@H](O)[C@@H]1[C@@]3(C)CC[C@H](NCCCNCCCCN)[C@@H](C)C3CC[C@@]12C (stereo partly drawn)"
discrete_label = "top range"

[[record]]
molecule = "CC(=O)O[C@H]1C[C@@]2(C)[C@@H](C[C@@H](O)[C@H]3[C@@]4(C)CC[C@H](NCCCNCCCCN)[C@@H](C)[C@@H]4CC[C@@]32C)/C1=C(\\CCC=C(C)C)C(=O)O"
discrete_label = "center range"

[[record]]
molecule = "CC(=O)O[C@H]1C[C@@]2(C)[C@@H](CC(=O)[C@H]3[C@@]4(C)CC[C@H](N5CCCC5)[C@@H](C)[C@@H]4CC[C@@]32C)/C1=C(\\CCC=C(C)C)C(=O)O"
discrete_label = "bottom range"

[[record]]
molecule = "CC(=O)O[C@H]1C[C@@]2(C)[C@H](C[C@@H](O)[C@@H]3[C@@]4(C)CC[C@H](NC(=O)c5cnccn5)[C@@H](C)C4CC[C@@]32C)/C1=C(\\CCC=C(C)C)C(=O)O (stereo partly drawn)"
discrete_label = "bottom range"

[[record]]
molecule = "COC(=O)/C(CCC=C(C)C)=C1\\[C@@H](OC(C)=O)C[C@@]2(C)[C@@H]1C[C@@H](O)[C@@H]1[C@@]3(C)CC[C@H](NCCCNCCCCNCCCN)[C@@H](C)C3CC[C@@]12C (stereo partly drawn)"
discrete_label = "top range"

[[record]]
molecule = "CC(=O)O[C@H]1C[C@@]2(C)[C@@H](CC(=O)[C@H]3[C@@]4(C)CCC(=O)[C@@H](C)[C@@H]4CC[C@@]32C)/C1=C(\\CCC=C(C)C)C(=O)O"
discrete_label = "center range"

